Biological target: T1, human isoleucine zipper-CD40L (IZ-hCD40L) (human, UniProt P29965 113-261)
T1 sequence: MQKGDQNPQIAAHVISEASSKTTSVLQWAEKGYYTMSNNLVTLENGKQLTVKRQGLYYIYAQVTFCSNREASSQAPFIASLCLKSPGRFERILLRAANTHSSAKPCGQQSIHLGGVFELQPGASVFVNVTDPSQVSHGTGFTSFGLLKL
Assay: cell-based or functional assay
ENDPOINT_LABEL: hIZCD40L-driven Human B Cell Proliferation EC50 (nM)

[I] BMS2h-572-634 (other) VH: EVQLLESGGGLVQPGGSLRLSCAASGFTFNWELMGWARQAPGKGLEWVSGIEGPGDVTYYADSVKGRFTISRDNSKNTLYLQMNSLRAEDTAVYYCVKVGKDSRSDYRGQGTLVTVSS
[II] BMS2h-719-2 (other) VH: EVQLLESGGGLVQPGGSLRLSCAASGFTFKRYEMMWVRQAPGKGLEWVSSISSDGSFTYYADSVKGRFTISRDNSKNTLYLQMNSLRAEDTAVYYCAEPFTEFDYWGHGTLVTVSS
## Input Given the listed records, identify the one among I and II with higher hIZCD40L-driven Human B Cell Proliferation EC50. // caller expects the label of the chosen entry
## Output II
(II: 82 nM, I: 31 nM)
